Tested on: HeLa
procedureSummary: Anticancer activity against human HeLa cells assessed as inhibition of cell growth
Type: functional, cell-based
Task for the reader: assign each of the following compounds its reported pIC50.
Note on pIC50: it is the negative log10 of concentration, concentration in mol/L.

(Q) I would be grateful if you could share the reported pIC50 for C#C/C=C\CCCCCCC#CC#CCCC/C=C\C#CCO [CALLYSPONGENOL B] .
(A) 7.49

(Q) Can you handle C#C/C=C\CCCCC#CC#CC#CCCC/C=C\C#CCO [DEHYDROISOPHONOCHALYNOL] next?
(A) 7.77

(Q) Same again, this time with "O=C(O)CCCC#CC#C/C=C/CCCCCCC=C(Br)Br"
(A) 7.27

(Q) # repeat for C#C/C=C\CCCC/C=C\C#CC#CCCC/C=C\C#CCO [CALLYSPONGENOL C]
(A) 7.89

* * *

Provide the recorded IC50 for the entries that follow.
Tested on: A549
procedureSummary: Anticancer activity against human A549 cells assessed as cell growth inhibition
Assay type: functional, cell-based

(Q) Look up IC50: "C=C1CCC[C@@H]2[C@@](C)(CC[C@@]3(C)CCn4cnc5ncnc(c54)N3O)[C@H](C)CC[C@@]12C"
(A) 1.18 µM

(Q) Follow-up item: COC(=O)[C@@H](C)[C@@H]1CC[C@](C)(CCC(=O)C(C)(C)CCCC(C)=O)OO1 [DIACARPEROXIDE B]
(A) ≥ 1 mg/L

(Q) Okay, and C=C(CCCC(C)(C)O)C(=O)CC[C@@]1(C)CC[C@@H]([C@H](C)C(=O)OC)OO1 [AIKUPIKOXIDE D] ?
(A) ≥ 1 mg/L

(Q) Then this molecule: "C=C1CCC[C@@H]2[C@@](C)(CC[C@@]3(C)CCn4cnc5ncnc(c54)N3O)[C@H](C)CC[C@]12C"
(A) 0.12 µM

* * *

procedureSummary: Inhibition of actin (unknown origin) polymerization at 100 nM incubated for 20 mins in presence of ATP by ELISA analysis relative to control
setupConditions: Homo sapiens
recordedEndpoint: inhibition (%)
Give a bare numeral; the unit % is implied.

(Q) Given the entry "CO[C@]1([C@@H]2CSC(=O)N2Cc2ccccc2)C[C@H]2C[C@@H](CC[C@H](C)/C=C\C=C\CC/C(C)=C\C(=O)O2)O1" , report its measured inhibition.
(A) 33

(Q) Entry to check: "C/C1=C/C(=O)O[C@@H]2C[C@@H](CC[C@H](C)/C=C\C=C\CC1)O[C@@](OC(=O)c1ccccc1)([C@@H]1CSC(=O)N1)C2"
(A) 23

(Q) Try this compound next: "CO[C@]1([C@@H]2CSC(=O)N2CCCO)C[C@H]2C[C@@H](CC[C@H](C)/C=C\C=C\CC/C(C)=C\C(=O)O2)O1"
(A) 0

(Q) And the next one, "COc1ccc(CC(=O)N2C(=O)SC[C@H]2[C@@]2(OC)C[C@H]3C[C@@H](CC[C@H](C)/C=C\C=C\CC/C(C)=C\C(=O)O3)O2)cc1" ?
(A) 0

(Q) Follow-up entry: "CO[C@]1([C@@H]2CSC(=O)N2C(=O)c2ccccc2)C[C@H]2C[C@@H](CC[C@H](C)/C=C\C=C\CC/C(C)=C\C(=O)O2)O1"
(A) 17

(Q) And the next one, "C/C1=C/C(=O)O[C@@H]2C[C@@H](CC[C@H](C)/C=C\C=C\CC1)O[C@@](O)([C@@H]1CSC(=O)N1CO)C2" ?
(A) 35

* * *

Organism: Homo sapiens
procedureSummary: Inhibition of actin (unknown origin) polymerization at 1 uM incubated for 20 mins in presence of ATP by ELISA analysis relative to control
Can you tell me inhibition for the items I'm about to list?
Enter your answer as a number in %; do not include the unit.

(Q) Value lookup for inhibition; key = "CO[C@]1([C@@H]2CSC(=O)N2Cc2ccccc2)C[C@H]2C[C@@H](CC[C@H](C)/C=C\C=C\CC/C(C)=C\C(=O)O2)O1"
(A) 67

(Q) Continue with "CO[C@]1([C@@H]2CSC(=O)N2C2CCCC2)C[C@H]2C[C@@H](CC[C@H](C)/C=C\C=C\CC/C(C)=C\C(=O)O2)O1"
(A) 49

(Q) Same question for "CCN1C(=O)SC[C@H]1[C@@]1(O)C[C@H]2C[C@@H](CC[C@H](C)/C=C\C=C\CC/C(C)=C\C(=O)O2)O1" please.
(A) 70

(Q) Now try "COc1ccc(CC(=O)N2C(=O)SC[C@H]2[C@@]2(OC)C[C@H]3C[C@@H](CC[C@H](C)/C=C\C=C\CC/C(C)=C\C(=O)O3)O2)cc1" .
(A) 13

(Q) Cool, now "CO[C@]1([C@@H]2CSC(=O)N2C(=O)c2ccccc2)C[C@H]2C[C@@H](CC[C@H](C)/C=C\C=C\CC/C(C)=C\C(=O)O2)O1"
(A) 53

(Q) Next compound up: "C/C1=C/C(=O)O[C@@H]2C[C@@H](CC[C@H](C)/C=C\C=C\CC1)O[C@@](O)([C@@H]1CSC(=O)N1Cc1ccccc1)C2"
(A) 64

(Q) Can you check "C/C1=C/C(=O)O[C@@H]2C[C@@H](CC[C@H](C)/C=C\C=C\CC1)O[C@@](OCCc1ccccc1)([C@@H]1CSC(=O)N1)C2" next?
(A) 94

(Q) Try this compound too: "C/C1=C/C(=O)O[C@@H]2C[C@@H](CC[C@H](C)/C=C\C=C\CC1)O[C@@](OC(=O)c1ccccc1)([C@@H]1CSC(=O)N1)C2"
(A) 67

* * *

Can you tell me pIC50 for the items I'm about to list?
Tested on: HCT-116
procedureSummary: Anticancer activity against human HCT-116 cells assessed as inhibition of cell growth incubated for 72 hrs by SRB assay
Format: functional, cell-based
setupConditions: HCT-116, 72 h
Bear in mind: pIC50 is minus log10 of a mol/L concentration; give just that figure.

(Q) Which pIC50 is reported for this compound? "CC1(C)CCC[C@]2(C)[C@H]3C[C@@H](O)[C@]4(C)[C@H](C=O)C(C=O)=CC[C@H]4[C@]3(C)CC[C@@H]12"
(A) 5.47

(Q) Another compound to check: "CO[C@H]1NC(=O)C2=C1[C@H](O)C[C@H]1[C@]3(C)CC[C@H]4C(C)(C)CCC[C@]4(C)[C@H]3C[C@@H](OC(C)=O)[C@]21C"
(A) 4.58

(Q) Note, next up: CC(=O)O[C@H]1C[C@H]2[C@]3(C)CC[C@H]4C(C)(C)CCC[C@]4(C)[C@H]3C[C@@H](O)[C@]2(C)C2=C1C(O)OC2=O (stereo partly specified)
(A) 5.46

(Q) Then what about the compound "CC(=O)O[C@@H]1C[C@@H]2[C@@]3(C)CCCC(C)(C)[C@@H]3CC[C@@]2(C)[C@@H]2CCC3=C(C(=O)OC3)[C@@]12C" ?
(A) 4.84

(Q) Follow-up entry: CC(=O)O[C@H]1C[C@H]2[C@]3(C)CC[C@H]4C(C)(C)CCC[C@]4(C)[C@H]3C[C@@H](O)[C@]2(C)C2=C1COC2=O [SESTERSTATIN 7]
(A) 4.58

(Q) Param item: CC(=O)O[C@@H]1C[C@@H]2[C@@]3(C)CCCC(C)(C)[C@@H]3CC[C@@]2(C)[C@@H]2CC=C3C(=O)OCC3[C@@]12C (stereo partly specified)
(A) 4.81

* * *

System: HCT-116
procedureSummary: Antiproliferative activity against human HCT-116 cells assessed as cell viability measured after 24 hrs by MTT assay
Format: functional, cell-based
setupConditions: HCT-116, 24 h
recordedEndpoint: IC50 (µM)
Respond numerically; units are µM and should not be typed.

(Q) Could you share which IC50 value was measured for "COC1=C(Br)C[C@]2(OC=C1Br)ON=C(C(=O)NCCCOc1c(Br)cc(CCN)cc1Br)[C@@H]2O" ?
(A) 8.5

(Q) And for "COC1=C(Br)C[C@@]2(OC=C1Br)ON=C(C(=O)NCCCOc1c(Br)cc(CCNC(N)=O)cc1Br)[C@H]2O" ?
(A) 8.2

(Q) Field entry: "COC1=C(Br)C[C@]2(OC=C1Br)ON=C(C(=O)NCCCOc1c(Br)cc(CCNC=C3C(=O)C=CC3=O)cc1Br)[C@@H]2O"
(A) 5.1

(Q) Likewise for COC1=C(Br)C[C@@]2(OC=C1Br)ON=C(C(=O)NCCCOc1c(Br)cc(C(O)CNC(N)=O)cc1Br)[C@H]2O (some centres undefined) ?
(A) 7

* * *

Tested on: A549
procedureSummary: Anticancer activity against human A549 cells assessed as inhibition of cell growth incubated for 96 hrs
Type: functional, cell-based
setupConditions: A549, 96 h
recordedEndpoint: IC50 (nM)
Report the value in nM with no unit label.

(Q) Using the record for CC(=O)O[C@@H]1OC=C2C1[C@]1(C)C(C[C@@H]2OC(C)=O)[C@]2(C)CCC3C(C)(C)CCC[C@]3(C)C2C[C@H]1O (stereo partly specified) , report its IC50.
(A) 27

Hello, the source for this data is ChEMBL document CHEMBL5149985, in case you need it.
